system: 168753-222-R-J1-PDC complex spheroid viability; assay: Anticancer human tumor 168753-222-R-J1-PDC patient-derived bladder carcinoma cell line growth inhibition [CLK]; details: second compound 0.316 µM; first compound 0.1 µM; hits give low values;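 further: luminescence signal used as surrogate for viable cell amount; viability measured after seven days of drug exposure; 100% = DMSO vehicle control wells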
For each of the compounds below, state its viability, T/C.
Numbers only, in %.

Example compounds with recorded viability, T/C:
C=CC(=O)N1CCN(c2nc(=O)n(-c3c(C)ccnc3C(C)C)c3nc(-c4c(O)cccc4F)c(F)cc23)C(C)C1 (stereo not given) + CNC(=O)c1ccc(Nc2nc(OC3CCCC3)c3c(-c4ccc5nc(C)oc5c4)c[nH]c3n2)c(OC)c1 ... 83.5
COc1ccc([C@@H](O)c2cc(-c3ncnc4cc(N5CCOCC5)ccc34)c(F)cc2Cl)nn1 + CN1CCN(c2cc(C(=O)Nc3cc4cc(-c5cnn(C)c5)ccc4cn3)ccn2)CC1 ... 8.36
CC(CO)NC(=O)c1cc(-c2ccc(Cl)cc2)nn(-c2cnn(C)c2)c1=O (stereo not given) + CN1CCN(c2cc(C(=O)Nc3cc4cc(-c5cnn(C)c5)ccc4cn3)ccn2)CC1 ... 13.6

Dear reader, for each entry below, please note its viability, T/C.
1. COc1c(OCCCN2CCOCC2)ccc2c3n(c(=NC(=O)c4cnc(N)nc4)nc12)CCN3 + CNC(=O)c1ccc(Nc2nc(OC3CCCC3)c3c(-c4ccc5nc(C)oc5c4)c[nH]c3n2)c(OC)c1
2. CCc1c2c(nc3ccc(O)cc13)-c1cc3c(c(=O)n1C2)COC(=O)[C@]3(O)CC + CN1CCN(c2cc(C(=O)Nc3cc4cc(-c5cnn(C)c5)ccc4cn3)ccn2)CC1

**Result**
1. 7.32
2. 9.04
